# system-name: Human immunodeficiency virus type 1 protease (Human immunodeficiency virus 1)
# assay-summary: Percent inhibition against human immunodeficiency virus 1 protease
# Design: concentration or dose not given beside the values
# condition-label: concentration not given here
property: inhibition (%)
Please give a number only; it is taken to be in %.

>>> value("CC1CN(C(Cc2ccccc2)C(=O)NCC2N=Cc3cncnc32)C1=O (centres undefined)")
71
>>> value("COC(=O)CNC(=O)[C@H](c1ccccc1)N1C[C@H](C)C1=O")
63
>>> value("CC(C)CNC(=O)C(Cc1ccccc1)N1CCC1=O (centres undefined)")
65
>>> value("O=C(OCc1ccccc1)C1CC(=O)N1C(C(=O)NCc1ccccc1)c1ccccc1 (centres undefined)")
119
>>> value("CCCCNC(=O)C(c1ccccc1)N1C(=O)CC1C(=O)OCc1ccccc1 (centres undefined)")
71
>>> value("COC(=O)C(Cc1ccccc1)NC(=O)C1C(O)C(=O)N1C(C(=O)NCC1N=Cc2cncnc21)c1ccccc1 (centres undefined)")
97
>>> value("CCCCNC(=O)C(Cc1ccccc1)N1CC(C)C1=O (centres undefined)")
78
>>> value("O=C(NCc1ccccc1)C(Cc1ccccc1)N1CCC1=O (centres undefined)")
65

Respond only with inhibition recorded for O=C(NCC1N=Cc2cncnc21)C(c1ccccc1)N1C(=O)CC1c1ccccc1 (centres undefined)
78

Assign inhibition to the following record: CC1CN(C(C(=O)NCc2ccccc2)c2ccccc2)C1=O (centres undefined)
86

Supply measured inhibition of COC(=O)CNC(=O)[C@H](c1ccccc1)N1CCC1=O in your reply.
70

Tell me inhibition reported for COC(=O)CNC(=O)C(c1ccccc1)N1C(=O)CC1C(=O)OCc1ccccc1 (centres undefined)
97

Quick one: give measured inhibition for COC(=O)CNC(=O)C(Cc1ccccc1)N1C(=O)CC1C(=O)OCc1ccccc1 (centres undefined)
67

# return recorded inhibition for entry COC(=O)C(Cc1ccccc1)NC(=O)C1CC(=O)N1C(C(=O)NCC(C)C)c1ccccc1 (centres undefined)
71

Please report inhibition for the following compound: CCC[C@@H](C(=O)NCC(=O)OC)N1C(=O)C[C@H]1c1ccccc1
68

For the compound O=C(NCC1CCCCC1)C(Cc1ccccc1)N1CC(O)C1=O (centres undefined) , give its reported inhibition.
66

Give the value of inhibition reported for the following: CCCC(C(=O)NCC1CCCCC1)N1C(=O)CC1C(=O)NC(Cc1ccccc1)C(=O)OC (centres undefined)
71

Report measured inhibition; entry is CCC[C@@H](C(=O)NCC(=O)OC)N1C(=O)CC1C(=O)N[C@@H](Cc1ccccc1)C(=O)OC (some centres undefined)
103

Supply inhibition value. Item: O=C(NCC1CCCCC1)C(c1ccccc1)N1CCC1=O (centres undefined)
79

Provide measured inhibition value, entry: CC1CN(C(Cc2ccccc2)C(=O)NCC2CCCCC2)C1=O (centres undefined)
76

Determine its reported inhibition: COC(=O)CNC(=O)[C@H](Cc1ccccc1)N1C(=O)C[C@H]1C(=O)N[C@@H](Cc1ccccc1)C(=O)OC
69

Kindly indicate its recorded inhibition. Item: CC1C(=O)N(C(C(=O)NCC2CCCCC2)c2ccccc2)C1C(=O)OCc1ccccc1 (centres undefined)
92

State its inhibition: CCCCNC(=O)C(CCC)N1C(=O)CC1c1ccccc1 (centres undefined)
93

State its inhibition: CCCC(C(=O)NCC(=O)OC)N1C(=O)C(C)C1C(=O)OCc1ccccc1 (centres undefined)
87
